Measure Name: melting point

Answered cases to consult:
COC(=O)c1nc(-c2ccc(Cl)c(C)c2F)cc(N)c1Cl :: 116 to 118 °C
COC(=O)c1nc(-c2ccc(F)c(C)c2F)cc(NC(C)=O)c1Cl :: 152 to 153 °C
Nc1cc(-c2ccc(Cl)c(C(F)C(F)(F)F)c2F)nc(C(=O)O)c1Cl (stereo not drawn) :: 175 to 176 °C (dec.)
COC(=O)c1nc(-c2cc(N(C)C)c(Cl)cc2F)cc(N)c1Cl :: 113 to 115 °C

For the compound `CNc1c(Cl)ccc(-c2cc(N)c(Cl)c(C(=O)OC)n2)c1F` , what melting point is on record?
148 to 149 °C

Now consider `CCOc1cc(-c2cc(N)c(Cl)c(C(=O)O)n2)c(F)cc1Cl` .
178 to 179 °C (dec.)

Now consider `Nc1cc(-c2ccc(Cl)c(C(F)F)c2Cl)nc(C(=O)O)c1Cl` .
182 to 183 °C (dec.)

Now consider `COCCOc1c(Cl)ccc(-c2cc(N)c(Cl)c(C(=O)O)n2)c1F` .
169 to 170 °C (dec.)

Now consider `COC(=O)c1nc(-c2sc(F)c(CF)c2Cl)cc(N)c1Cl` .
104 to 105 °C
